Source listed as patent US20260109732A1.

- assay_protocol: Diameter and PDI from DLS measurements of mRNA nanoparticles with lipid amines
- Format: physicochemical
- recorded_conditions: CFTR mRNA nanoparticle with lipid amine
Structures can show the parent of a compound that is named as a salt.
Diameter (nm) strictly under 70 nm means yes (1); at 70 nm or over means no (0).

Below are worked cases with known answers.
compound	discrete_label
CC(C)CCC[C@@H](C)[C@H]1CC[C@H]2[C@@H]3CC=C4C[C@@H](OC(=O)CCC(=O)N(CCC(C)(C)N)CCC(C)(C)N)CC[C@]4(C)[C@H]3CC[C@]12C [SA169, dihydrochloride]	no (0)
CC(C)CCC[C@@H](C)[C@H]1CC[C@H]2[C@@H]3CC=C4C[C@@H](OC(=O)N(CCCCCCCCN(C)C)CCCN(C)C)CC[C@]4(C)[C@H]3CC[C@]12C [SA64]	yes (1)
CC(C)CCC[C@@H](C)[C@H]1CC[C@H]2[C@@H]3CC=C4C[C@@H](OC(=O)CCC(=O)N(CCCC(C)(C)N)CCC(C)(C)N)CC[C@]4(C)[C@H]3CC[C@]12C [SA166, dihydrochloride]	no (0)

Pending compound:
Input line: Would you kindly verify if Diameter (nm) of CC(C)CCC[C@@H](C)[C@H]1CC[C@H]2[C@@H]3CC=C4C[C@@H](OC(=O)CC(=O)N(CCCN(C)C)CCCN(C)C)CC[C@]4(C)[C@H]3CC[C@]12C.Cl.Cl [SA50] is strictly less than 70 nm?
Output line: no (0)

###

In this section, each of the compounds is paired with its reported PDI.
- assay_protocol: Diameter and PDI from DLS measurements of mRNA nanoparticles with lipid amines
- Format: physicochemical
- recorded_conditions: Luciferase mRNA nanoparticle modified with lipid amine
Structures can show the parent of a compound that is named as a salt.
Reply with just the number.

Here is how some compounds turned out for PDI.
compound	result
CC(C)CCC[C@@H](C)[C@H]1CC[C@H]2[C@@H]3CC=C4C[C@@H](OC(=O)N(CCCCNCC(C)CN)CC(C)CN)CC[C@]4(C)[C@H]3CC[C@]12C (stereo partly drawn) [SA75, trihydrochloride]	0.16
CC[C@H](CC[C@@H](C)[C@H]1CC[C@H]2[C@@H]3CC=C4C[C@@H](OC(=O)[C@H](C)N(CCCN)CCCCNCCCN)CC[C@]4(C)[C@H]3CC[C@]12C)C(C)C	0.19
CC[C@H](CC[C@@H](C)[C@H]1CC[C@H]2[C@@H]3CC=C4C[C@@H](OC(=O)CCCC(=O)N(CCC(C)N)CCC(C)N)CC[C@]4(C)[C@H]3CC[C@]12C)C(C)C (stereo partly drawn) [SA156, dihydrochloride]	0.15
CC[C@H](CC[C@@H](C)[C@H]1CC[C@H]2[C@@H]3CC=C4C[C@@H](OC(=O)CCC(=O)N(CCC(C)(C)N)CCC(C)(C)N)CC[C@]4(C)[C@H]3CC[C@]12C)C(C)C [SA170, dihydrochloride]	0.21
CC[C@H](CC[C@@H](C)[C@H]1CC[C@H]2[C@@H]3CC=C4C[C@@H](OC(=O)N(CCCCNC)CCCNC)CC[C@]4(C)[C@H]3CC[C@]12C)C(C)C [SA180, dihydrochloride]	0.17
CCC(N)(CC)CCNCCCCN(CCC(N)(CC)CC)C(=O)O[C@H]1CC[C@@]2(C)C(=CC[C@H]3[C@@H]4CC[C@H]([C@H](C)CCCC(C)C)[C@@]4(C)CC[C@@H]32)C1.Cl.Cl.Cl	0.17
CC(C)CCC[C@@H](C)[C@H]1CC[C@H]2[C@@H]3CC=C4C[C@@H](OC(=O)CSSCC(=O)N(CCCN)CCCCNCCCN)CC[C@]4(C)[C@H]3CC[C@]12C [SA98, trihydrochloride]	0.15
CCC(N)(CC)CCNCCCCN(CCC(N)(CC)CC)C(=O)CCCC(=O)O[C@H]1CC[C@@]2(C)C(=CC[C@H]3[C@@H]4CC[C@H]([C@H](C)CCCC(C)C)[C@@]4(C)CC[C@@H]32)C1 [SA185, trihydrochloride]	0.16

Please turn your attention to the following entry.
Input line: Looking for the measured PDI of CC[C@H](CC[C@@H](C)[C@H]1CC[C@H]2[C@@H]3CC=C4C[C@@H](OC(=O)N(CCCCNC(C)CCN)C(C)CCN)CC[C@]4(C)[C@H]3CC[C@]12C)C(C)C (stereo partly drawn) [SA113, trihydrochloride] , can you help?
Output line: 0.23

###

- System: HeLa cells
- assay_protocol: Luciferase Protein Expression Assay in HeLa Cells
- Assay type: cell-based, Human
- recorded_conditions: LNPs encapsulating Luciferase mRNA, 25 ng per well, N=4 wells; 5 h serum-free then 24 h; ONE-Glo
metric_name: Average Relative Light Units ± Standard Deviation (Relative Light Units)
Give the number; Relative Light Units is assumed, so skip it.

Recorded Average Relative Light Units ± Standard Deviation, per entry:
compound	result
CC[C@H](CC[C@@H](C)[C@H]1CC[C@H]2[C@@H]3CC=C4C[C@@H](OC(=O)[C@H](C)N(CCCN)CCCCNCCCN)CC[C@]4(C)[C@H]3CC[C@]12C)C(C)C	12261.7
CC(C)CCC[C@@H](C)[C@H]1CC[C@H]2[C@@H]3CC=C4C[C@@H](SSCCC(=O)N(CCCCCCCC(C)(C)N)CCC(C)(C)N)CC[C@]4(C)[C@H]3CC[C@]12C.Cl.Cl	24497.9

For the next question, use this compound.
Input line: Look at this compound and give its reported Average Relative Light Units ± Standard Deviation. CC(C)CCC[C@@H](C)[C@H]1CC[C@H]2[C@@H]3CC=C4C[C@@H](OC(=O)CCCC(=O)N(CCCCNCCC(C)N)CCC(C)N)CC[C@]4(C)[C@H]3CC[C@]12C.Cl.Cl.Cl (stereo partly drawn)
Output line: 15625.8

###

- assay_protocol: Diameter and PDI from DLS measurements of mRNA nanoparticles with lipid amines
- Type: physicochemical
- recorded_conditions: Luciferase mRNA nanoparticle modified with lipid amine
Where a name gives a salt, the structure may show the parent alone.
metric_name: Diameter (nm)
Answer in nm, number only, no unit symbol.

compound	unit_tag	Diameter (nm)
CC[C@H](CC[C@@H](C)[C@H]1CC[C@H]2[C@@H]3CC=C4C[C@@H](OC(=O)N(CCCCNCCC(C)(C)N)CCC(C)(C)N)CC[C@]4(C)[C@H]3CC[C@]12C)C(C)C [SA114, trihydrochloride]	nm	75
CC[C@H](CC[C@@H](C)[C@H]1CC[C@H]2[C@@H]3CC=C4C[C@@H](OC(=O)N(CCCCCCCC(C)(C)N)CCC(C)(C)N)CC[C@]4(C)[C@H]3CC[C@]12C)C(C)C [SA153, dihydrochloride]	nm	72
CC(C)CCC[C@@H](C)[C@H]1CC[C@H]2[C@@H]3CC=C4C[C@@H](OC(=O)[C@H](CCCCN)NCCCCCCN)CC[C@]4(C)[C@H]3CC[C@]12C.Cl.Cl.Cl [SA131]	nm	72

Input line: Item under review: CC[C@H](CC[C@@H](C)[C@H]1CC[C@H]2[C@@H]3CC=C4C[C@@H](OC(=O)CCC(=O)N(CCCCCCCC(C)(C)N)CCC(C)(C)N)CC[C@]4(C)[C@H]3CC[C@]12C)C(C)C [SA165, dihydrochloride] . Reported Diameter (nm)?
Output line: 72

###

- assay_protocol: Diameter and PDI from DLS measurements of mRNA nanoparticles with lipid amines
- Type: physicochemical
- recorded_conditions: CFTR mRNA nanoparticle with lipid amine
Counter-ions that a name gives are not always drawn.
metric_name: PDI
Respond numerically, and do not add a unit to the figure.

compound	PDI
CC(C)CCC[C@@H](C)[C@H]1CC[C@H]2[C@@H]3CC=C4C[C@@H](OC(=O)N(CCCCCCCC(C)N)CCC(C)N)CC[C@]4(C)[C@H]3CC[C@]12C (stereo partly drawn) [SA151, dihydrochloride]	0.14
CC(C)CCC[C@@H](C)[C@H]1CC[C@H]2[C@@H]3CC=C4C[C@@H](SSCCC(=O)N(CCC(C)N)CCC(C)N)CC[C@]4(C)[C@H]3CC[C@]12C (stereo partly drawn) [SA173, dihydrochloride]	0.16
CC[C@H](CC[C@@H](C)[C@H]1CC[C@H]2[C@@H]3CC=C4C[C@@H](OC(=O)CCCC(=O)N(CCC(C)N)CCC(C)N)CC[C@]4(C)[C@H]3CC[C@]12C)C(C)C (stereo partly drawn) [SA156, dihydrochloride]	0.18
CC(C)CCC[C@@H](C)[C@H]1CC[C@H]2[C@@H]3CC=C4C[C@@H](OC(=O)N(CCCN)CCCCCCCCN)CC[C@]4(C)[C@H]3CC[C@]12C [SA60, dihydrochloride]	0.08
CC(C)CCC[C@@H](C)[C@H]1CC[C@H]2[C@@H]3CC=C4C[C@@H](OC(=O)CCCC(=O)N(CCCN)CCCCCCCCN)CC[C@]4(C)[C@H]3CC[C@]12C.Cl.Cl [SA134]	0.10

Input line: Which measured PDI value corresponds to CC[C@H](CC[C@@H](C)[C@H]1CC[C@H]2[C@@H]3CC=C4C[C@@H](OC(=O)CCCC(=O)N(CCCCCCCC(C)N)CCC(C)N)CC[C@]4(C)[C@H]3CC[C@]12C)C(C)C (stereo partly drawn) [SA154, dihydrochloride] ?
Output line: 0.13

Input line: Can you check CC(C)CCC[C@@H](C)[C@H]1CC[C@H]2[C@@H]3CC=C4C[C@@H](OC(=O)N(CCCCN(C)CCCN(C)C)CCCN(C)C)CC[C@]4(C)[C@H]3CC[C@]12C [SA68] next?
Output line: 0.12

Input line: Entry CC(C)CCC[C@@H](C)[C@H]1CC[C@H]2[C@@H]3CC=C4C[C@@H](OC(=O)N(CCC(C)(C)N)CCC(C)(C)N)CC[C@]4(C)[C@H]3CC[C@]12C [SA158, dihydrochloride] please
Output line: 0.15

Input line: // same read-out, input: CC(C)CCC[C@@H](C)[C@H]1CC[C@H]2[C@@H]3CC=C4C[C@@H](OC(=O)C(C)C(=O)N(CCCN)CCCCNCCCN)CC[C@]4(C)[C@H]3CC[C@]12C.Cl.Cl.Cl (stereo partly drawn) [SA62]
Output line: 0.10
